We begin with a simple list: items and their reported log10 of IC50.
Measurement target: integrin α4β1 (Homo sapiens, UniProt P05556+P13612)
Construct: endogenous in cells
Sequence (P13612 34-1032): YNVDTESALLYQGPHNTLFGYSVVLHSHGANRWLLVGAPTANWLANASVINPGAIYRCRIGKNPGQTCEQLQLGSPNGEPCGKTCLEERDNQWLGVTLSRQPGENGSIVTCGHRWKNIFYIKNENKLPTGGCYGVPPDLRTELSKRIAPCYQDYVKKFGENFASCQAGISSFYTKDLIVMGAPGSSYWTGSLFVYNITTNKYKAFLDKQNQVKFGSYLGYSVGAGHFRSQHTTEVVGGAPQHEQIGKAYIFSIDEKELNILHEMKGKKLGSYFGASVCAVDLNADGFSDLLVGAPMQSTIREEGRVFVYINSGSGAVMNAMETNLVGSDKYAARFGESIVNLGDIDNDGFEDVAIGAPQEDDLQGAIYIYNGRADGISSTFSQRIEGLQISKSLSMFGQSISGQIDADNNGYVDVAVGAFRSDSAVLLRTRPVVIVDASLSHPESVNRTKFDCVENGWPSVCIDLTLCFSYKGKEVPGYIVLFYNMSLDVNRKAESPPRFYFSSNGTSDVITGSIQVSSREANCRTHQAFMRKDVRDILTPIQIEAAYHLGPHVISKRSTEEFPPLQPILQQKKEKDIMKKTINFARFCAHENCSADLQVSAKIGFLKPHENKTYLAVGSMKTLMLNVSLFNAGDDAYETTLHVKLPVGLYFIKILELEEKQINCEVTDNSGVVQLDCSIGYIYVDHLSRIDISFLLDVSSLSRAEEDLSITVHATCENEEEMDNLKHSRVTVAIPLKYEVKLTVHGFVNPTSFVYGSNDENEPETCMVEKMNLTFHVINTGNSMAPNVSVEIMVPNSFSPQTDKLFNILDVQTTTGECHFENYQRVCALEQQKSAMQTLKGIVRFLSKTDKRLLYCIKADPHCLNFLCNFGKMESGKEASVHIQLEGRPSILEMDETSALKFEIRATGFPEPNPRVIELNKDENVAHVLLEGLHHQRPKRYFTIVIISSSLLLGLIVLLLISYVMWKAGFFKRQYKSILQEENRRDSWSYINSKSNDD
Sequence (P05556 21-798): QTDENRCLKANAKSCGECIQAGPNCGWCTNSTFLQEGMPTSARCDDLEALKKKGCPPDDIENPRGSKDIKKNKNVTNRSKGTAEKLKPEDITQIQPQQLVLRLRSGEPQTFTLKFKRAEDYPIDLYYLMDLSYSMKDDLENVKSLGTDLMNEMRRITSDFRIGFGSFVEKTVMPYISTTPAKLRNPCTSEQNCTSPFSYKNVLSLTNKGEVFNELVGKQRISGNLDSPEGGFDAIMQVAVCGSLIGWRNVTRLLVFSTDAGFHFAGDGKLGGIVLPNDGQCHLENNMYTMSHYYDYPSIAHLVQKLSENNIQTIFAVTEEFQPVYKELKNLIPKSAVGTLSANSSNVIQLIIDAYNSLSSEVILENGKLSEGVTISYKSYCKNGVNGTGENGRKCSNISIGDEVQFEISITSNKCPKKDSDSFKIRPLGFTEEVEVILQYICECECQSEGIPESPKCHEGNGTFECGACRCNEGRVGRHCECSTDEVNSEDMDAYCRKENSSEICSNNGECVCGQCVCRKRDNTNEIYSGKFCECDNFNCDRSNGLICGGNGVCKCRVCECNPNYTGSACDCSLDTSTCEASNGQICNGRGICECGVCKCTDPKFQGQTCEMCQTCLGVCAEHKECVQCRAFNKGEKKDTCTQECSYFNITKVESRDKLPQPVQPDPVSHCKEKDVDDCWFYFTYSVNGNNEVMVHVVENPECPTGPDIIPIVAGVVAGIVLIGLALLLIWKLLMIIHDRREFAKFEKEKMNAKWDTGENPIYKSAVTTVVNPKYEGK
Measurement protocol: Inhibition of α4β1-dependent cell adhesion (Jurkat cells to peptide CS-1)
Stated conditions: adhesion of Jurkat cells to CS-1-coated plates; products preincubated with cells at 37° C. for 30 minutes; at least 6 product concentrations
Scale type: logarithmic (base 10). Underlying IC50 unit: nM.

Completed entries (count: 2):
Molecule	Observed
O=C(O)[C@H](CCC(=O)N1CCC(CN2CCOC2=O)CC1)NC(=O)[C@@H]1CCCN1S(=O)(=O)c1cc(Cl)cc(Cl)c1 [Example 70]	1.23
O=C(O)[C@H](CCC(=O)N1CCC(CN2CCCCC2)CC1)NC(=O)[C@@H]1CCCN1S(=O)(=O)c1cc(Cl)cc(Cl)c1 [Example 94]	1.15

*Q* Supply reported log10 of IC50 belonging to this molecule: O=C(O)[C@H](CCC(=O)N1CCC(CN2Cc3ccccc3C2=O)CC1)NC(=O)[C@@H]1CCCN1S(=O)(=O)c1cc(Cl)cc(Cl)c1 [Example 54]
*A* 1.34

---

Measurement target: integrin α4β1 (Homo sapiens, UniProt P05556+P13612)
Construct: endogenous in cells
Measurement protocol: Inhibition of α4β1-dependent cell adhesion (Jurkat cells to peptide CS-1)
Stated conditions: adhesion of Jurkat cells to CS-1-coated plates; products preincubated with cells at 37° C. for 30 minutes; at least 6 product concentrations
Quantity name: IC50 (nM)
Return type: number; implicit unit nM.

Solved cases (5 shown):
Molecule	IC50 [nM]
CCc1nc2cnccc2n1CC1CCN(C(=O)NC[C@H](NC(=O)[C@@H]2CCCN2S(=O)(=O)c2cc(Cl)cc(Cl)c2)C(=O)O)CC1 [Example 123]	4.6
O=C(O)[C@H](CCC(=O)N1CCC(CCOC(=O)N2CCCC2)CC1)NC(=O)[C@@H]1CCCN1S(=O)(=O)c1cc(Cl)cc(Cl)c1 [Example 61]	2.3
CC(C)NC(=S)NCC1CCN(C(=O)CC[C@H](NC(=O)[C@@H]2CCCN2S(=O)(=O)c2cc(Cl)cc(Cl)c2)C(=O)O)CC1 [Example 58]	166
COCCNC(=O)OCCC1CCN(C(=O)CC[C@H](NC(=O)[C@@H]2CCCN2S(=O)(=O)c2cc(Cl)cc(Cl)c2)C(=O)O)CC1 [Example 66]	3.5
CN1CCN(CC2CCN(C(=O)CC[C@H](NC(=O)[C@@H]3CCCN3S(=O)(=O)c3cc(Cl)cc(Cl)c3)C(=O)O)CC2)CC1 [Example 79]	7.6

*Q* Return IC50 (reported value) for this molecule: Cc1ccc(S(=O)(=O)N2CCC[C@H]2C(=O)N[C@@H](CCC(=O)N2CCN(Cc3cccs3)CC2)C(=O)O)cc1 [Example 77]
*A* 247

*Q* Fill in reported IC50 for this entry: CCc1nc2c(C)cc(C)nc2n1CC1CCN(C(=O)CC[C@H](NC(=O)[C@@H]2CCCN2S(=O)(=O)c2cc(Cl)cc(Cl)c2)C(=O)O)CC1 [Example 65]
*A* 45

*Q* In one line, give reported IC50 of the entry Cc1ccc(S(=O)(=O)N2CCC[C@H]2C(=O)N[C@@H](CCC(=O)N2CCN(Cc3ccccn3)CC2)C(=O)O)cc1 [Example 75] .
*A* 101

*Q* Give the reported value of IC50 for this record: CCN(CC)CC1CCN(C(=O)CC[C@H](NC(=O)[C@@H]2CCCN2S(=O)(=O)c2cc(Cl)cc(Cl)c2)C(=O)O)CC1 [Example 88]
*A* 83.9

*Q* Tell us which IC50 value is on record for CCOCCn1c(CN2CCN(C(=O)CC[C@H](NC(=O)[C@@H]3CCCN3S(=O)(=O)c3ccc(C)cc3)C(=O)O)CC2)nc2ccccc21 [Example 74]
*A* 48

*Q* Please give the documented IC50 of Cc1ccc(S(=O)(=O)N2CCC[C@H]2C(=O)N[C@@H](CCC(=O)N2CCC(CN3Cc4ccccc4C3=O)CC2)C(=O)O)cc1 [Example 76]
*A* 67

*Q* Using the record for O=C(O)[C@H](CCC(=O)N1CCC(CNc2ccncc2)CC1)NC(=O)[C@@H]1CCCN1S(=O)(=O)c1cc(Cl)cc(Cl)c1 [Example 99] , state its measured IC50.
*A* 13.1

---

Measurement target: integrin α4β1 (Homo sapiens, UniProt P05556+P13612)
Construct: endogenous in cells
Measurement protocol: Inhibition of α4β1-dependent cell adhesion (Jurkat cells to peptide CS-1)
Stated conditions: adhesion of Jurkat cells to CS-1-coated plates; products preincubated with cells at 37° C. for 30 minutes; at least 6 product concentrations
# pIC50 per record follows
# reply with the number alone; pIC50 is -log10 of concentration in mol/L

Solved cases below.
CC(C)S(=O)(=O)NCC1CCN(C(=O)CC[C@H](NC(=O)[C@@H]2CCCN2S(=O)(=O)c2cc(Cl)cc(Cl)c2)C(=O)O)CC1 7.94
Cc1ccc(C)n1CC1CCN(C(=O)CC[C@H](NC(=O)[C@@H]2CCCN2S(=O)(=O)c2cc(Cl)cc(Cl)c2)C(=O)O)CC1 7.05
Cc1ccc(S(=O)(=O)N2CCC[C@H]2C(=O)N[C@@H](CCC(=O)N2CCC(Cn3c(C)nc4cnccc43)CC2)C(=O)O)cc1 7.24
CN1CCN(C(=O)OCCC2CCN(C(=O)NC[C@H](NC(=O)[C@@H]3CCCN3S(=O)(=O)c3cc(Cl)cc(Cl)c3)C(=O)O)CC2)CC1 8.01
CCc1nc2cnccc2n1CC1CCN(C(=O)CC[C@H](NC(=O)[C@@H]2CCCN2S(=O)(=O)c2cc(Cl)cc(Cl)c2)C(=O)O)CC1 7.92

*Q* Check the records and state pIC50 for `Cc1nc2cnccc2n1CC1CCN(C(=O)CC[C@H](NC(=O)[C@@H]2CCCN2S(=O)(=O)c2cc(Cl)cc(Cl)c2)C(=O)O)CC1`
*A* 7.82

*Q* Note down pIC50 recorded for `O=C(O)[C@H](CCC(=O)N1CCC(COc2ccncc2)CC1)NC(=O)[C@@H]1CCCN1S(=O)(=O)c1cc(Cl)cc(Cl)c1`
*A* 6.52

*Q* Please give the documented pIC50 of `O=C(O)[C@H](CCC(=O)N1CCC(Cn2c(=O)[nH]c3cnccc32)CC1)NC(=O)[C@@H]1CCCN1S(=O)(=O)c1cc(Cl)cc(Cl)c1`
*A* 7.74

*Q* Supply recorded pIC50 for `O=C(O)[C@H](CCC(=O)N1CCC(CNC(=O)N2CCOCC2)CC1)NC(=O)[C@@H]1CCCN1S(=O)(=O)c1cc(Cl)cc(Cl)c1` here.
*A* 7.48

*Q* Note pIC50 for the compound shown: `CCNCC1CCN(C(=O)CC[C@H](NC(=O)[C@@H]2CCCN2S(=O)(=O)c2cc(Cl)cc(Cl)c2)C(=O)O)CC1`
*A* 7.13

*Q* Quick one: give measured pIC50 for `CCCc1nc2cnccc2n1CC1CCN(C(=O)CC[C@H](NC(=O)[C@@H]2CCCN2S(=O)(=O)c2cc(Cl)cc(Cl)c2)C(=O)O)CC1`
*A* 7.30

---

Listed next: entries and their corresponding IC50.
Measurement target: integrin α4β1 (Homo sapiens, UniProt P05556+P13612)
Construct: endogenous in cells
Measurement protocol: Inhibition of α4β1-dependent cell adhesion (Jurkat cells to peptide CS-1)
Stated conditions: adhesion of Jurkat cells to CS-1-coated plates; products preincubated with cells at 37° C. for 30 minutes; at least 6 product concentrations

The cases that follow already have their IC50 on record.
Compound	Measurement target	Observed
CCc1nc2c(C)cc(C)nc2n1CCC1CCN(C(=O)CC[C@H](NC(=O)[C@@H]2CCCN2S(=O)(=O)c2cc(Cl)cc(Cl)c2)C(=O)O)CC1 [Example 59]	integrin α4β1 (Homo sapiens, UniProt P05556+P13612)	13.3 nM
Cc1ccc(S(=O)(=O)N2CCC[C@H]2C(=O)N[C@@H](CNC(=O)N2CCC(CN3CCCCC3)CC2)C(=O)O)cc1 [Example 105]	integrin α4β1 (Homo sapiens, UniProt P05556+P13612)	120 nM
CN(C)CC1CCN(C(=O)OC[C@H](NC(=O)[C@@H]2CCCN2S(=O)(=O)c2cc(Cl)cc(Cl)c2)C(=O)O)CC1 [Example 98]	integrin α4β1 (Homo sapiens, UniProt P05556+P13612)	17.7 nM
CN1CCN(C(=O)NCC2CCN(C(=O)CC[C@H](NC(=O)[C@@H]3CCCN3S(=O)(=O)c3cc(Cl)cc(Cl)c3)C(=O)O)CC2)CC1 [Example 97]	integrin α4β1 (Homo sapiens, UniProt P05556+P13612)	122 nM
Cc1ccc(S(=O)(=O)N2CCC[C@H]2C(=O)N[C@@H](CCC(=O)N2CCC(Cn3ccnc3-c3ccccc3)CC2)C(=O)O)cc1 [Example 63]	integrin α4β1 (Homo sapiens, UniProt P05556+P13612)	198 nM

*Q* Please report IC50 with integrin α4β1 (Homo sapiens, UniProt P05556+P13612) for item CC(C)(C)NC(=O)NCC1CCN(C(=O)CC[C@H](NC(=O)[C@@H]2CCCN2S(=O)(=O)c2cc(Cl)cc(Cl)c2)C(=O)O)CC1 [Example 56] .
*A* 23 nM

*Q* Output reported IC50 of the compound CN1CCN(C(=O)OCCC2CCN(C(=O)CC[C@H](NC(=O)[C@@H]3CCCN3S(=O)(=O)c3cc(Cl)cc(Cl)c3)C(=O)O)CC2)CC1 [Example 93] on integrin α4β1 (Homo sapiens, UniProt P05556+P13612).
*A* 26.7 nM
